tested on: A549 NSCLC; experiment: NCI tumour cell line growth inhibition, 48 h
Parameter TGI: see the listing below.
Field: numeric (µM). Do not append units.

CSc1c(C#N)c(=O)n(N)c2c1c(C)nn2-c1ccccc1 = 61.6
CN1CCC2(c3ccccc3)CC(=O)/C(=C/c3ccc(Cl)c(Cl)c3)C1C2 (stereo not drawn) = 10.9
CCCCC(=O)N(c1ccc(Nc2c3ccccc3nc3cc([N+](=O)[O-])ccc23)cc1)S(C)(=O)=O = 62.2
CC[C@H](C)[C@@H]([C@@H](CC(=O)N1CCC[C@H]1[C@H](OC)[C@@H](C)C(=O)NCCc1ccccc1)OC)N(C)C(=O)C(NC(=O)[C@H](C(C)C)N(C)C)C(C)C (stereo partly drawn) = 1.1

Now turn to the next compound.
Quick one: TGI for CC12OC(CC(O)C1O)n1c3ccccc3c3c4c(c5c6ccccc6n2c5c31)C(=O)N(CCN1CCOCC1)C4=O (stereo not drawn) ?
2.35
